# protocolDescription: Cytotoxicity against dog MDCK cells assessed as reduction in cell viability incubated for 48 hrs by CellTiter96 Aqueous one solution assay
# Type: toxicity, cell-based, Canis lupus familiaris
measureName: CC50 at 48 h

>>> endpointvalue("CCc1ncnc2c([C@@H]3O[C@H](CO)[C@@H](O)[C@H]3O)n[nH]c12")
"> 1000 µM"
>>> endpointvalue("CC(C)Sc1ncnc2c([C@@H]3O[C@H](CO)[C@@H](O)[C@H]3O)n[nH]c12")
"503 µM"
>>> endpointvalue("OC[C@H]1O[C@@H](c2n[nH]c3c(-c4cnn[nH]4)ncnc23)[C@H](O)[C@@H]1O")
"> 1000 µM"
>>> endpointvalue("CSc1ncnc2c([C@@H]3O[C@H](CO)[C@@H](O)[C@@H]3O)n[nH]c12")
"> 1000 µM"
>>> endpointvalue("CSc1ncnc2c([C@@H]3O[C@H](CO)[C@@H](O)[C@H]3O)n(C)nc12")
"> 1000 µM"
